# test-details: soluble on expression in E. coli; label from the status in PepcDB or PDB records

| seq-string | soluble on expression in E. coli |
| --- | --- |
| MHNYLDFEKPISDLEGKILELKKLASEDESVNTSDEIARLEGRVRDAMVEIYSKLSPWQKTQVARHPSRPHFLDYASRLFTEFTPLAGDRNFANDDAIQAGLARFHGTPVAVIGQEKGNDTKSRIKHNFGSPRPEGYRKATRIMEMADRFGLPLITLVDTAGAYPGVNAEERGQAEAIARSTEMCLNVKVPIVTVVIGEGGSGGAIAIATGNRVYMLEHAIYSVISPEGAASILWRDSTRAKEAASNMKITAEDLKSLGVIDGIIPEPVGGAHRDPDAVISRTETVIGDALKELSARNGDELRADRRQKYLNIGRNL | not soluble |
| MGSDKIHHHHHHMTQTSSPLRNRYEFLLLFDVENGNPNGDPDSGNAPRVDPEDGHGLVSDVALKRRVRNYVQAAGEQIFIQHGTNLNRPIFQAKQASGGGSKGKQDVDAARRWMCEHFYDVRTFGAVMSTGANAGQVRGPVQLTFARSLDPVFAIEASITRGAVAEDIKNAKTLDDFLNWEAQQDEDKLRTMGRKSLIPYGLFATKGFVSAHLAQGTGFSEADLKLLLEALLNMYEHDRSASKGLMSSRRLFVFRHVGTDSDPQQRARQAVLGCAPAHKLLDLGQVIEVRRKDEHKPARALSDYEVTVHLDRLPAGVELLDLDSWDEARYHDGWQSR | not soluble |

----------
# test-details: soluble on expression in E. coli; label from the status in PepcDB or PDB records

| seq-string | soluble on expression in E. coli |
| --- | --- |
| MAKLLITGGCGFLGSNLASFALSQGIDLIVFDNLSRKGATDNLHWLSSLGNFEFVHGDIRNKNDVTRLITKYMPDSCFHLAGQVAMTTSIDNPCMDFEINVGGTLNLLEAVRQYNSNCNIIYSSTNKVYGDLEQYKYNETETRYTCVDKPNGYDESTQLDFHSPYGCSKGAADQYMLDYARIFGLNTVVFRHSSMYGGRQFATYDQGWVGWFCQKAVEIKNGINKPFTISGNGKQVRDVLHAEDMISLYFTALANVSKIRGNAFNIGGTIVNSLSLLELFKLLEDYCNIDMRFTNLPVRESDQRVFVADIKKITNAIDWSPKVSAKDGVQKMYDWTSSILEHHHHHH | soluble |
| MAHHHHHHMADTEAVAGTEAIPPTQNEQHDSAAKKKQANSYYYWHNHEKERAKVGDVAPMPKPVLLKKSDPSVLPASTASYPITKHSWCDGKKNVTVYIDTKLDEKETMVEDTLQVEFGKRRLTVSYIANVQTSKDVATQRRKQLVLCLAKAIKSKESSYKVKDPSGQIVIRLAKAEETSWWELAKKDGKLSDADDSDEENEGKADEGDGAAEEKA | soluble |

----------
# test-details: soluble on expression in E. coli; label from the status in PepcDB or PDB records

| seq-string | soluble on expression in E. coli |
| --- | --- |
| MQNHVISLASAAERRAHIAATFGVRGIPFQFFDALMPSEELNRMMAELVPGLAKQHLLSEVEKACFMSHAVLWKQALDEGLPYVAVFEDDVLLGKDAEKFLAEDTWLEERFDKDSAFIVRLETMFAKVIVRPDKVLNYENRSFPLLESEHWGTAGYIISREAMRFFLERFAVLPAEWIKAVDWMMFTYFFDKEGMPVYQVNPALCTQELHYAKFLSKNSMLGSDLEKDREQERRHRRSLKVMFDLKRALGKFGREKKKRMERQRQAELEKAYGRRVISFK | not soluble |
| QFMKPFISEKSSKSLEIPLGFNEYFPAPFPITVDLLDYSGRSWTVRMKKRGEKVFLTVGWENFVKDNNLEDGKYLQFIYDRDRTFYVIIYGHNMCS | not soluble |
| MSLTISDVPTQTLPAEGEIGLIDVGSLQLESGAVIDDVCIAVQRWGKLSPARDNVVVVLHALTGDSHITGPAGPGHPTPGWWDGVAGPGAPIDTTRWCAVATNVLGGCRGSTGPSSLARDGKPWGSRFPLISIRDQVQADVAALAALGITEVAAVVGGSMGGARALEWVVGYPDRVRAGLLLAVGARATADQIGTQTTQIAAIKADPDWQSGDYHETGRAPDAGLRLARRFAHLTYRGEIELDTRFANHNQGNEDPTAGGRYAVQSYLEHQGDKLLSRFDAGSYVILTEALNSHDVGRGRGGVSAALRACPVPVVVGGITSDRLYPLRLQQELADLLPGCAGLRVVESVYGHDGFLVETEAVGELIRQTLGLADREGACREGHHHHHH | not soluble |

----------
# test-details: soluble on expression in E. coli; label from the status in PepcDB or PDB records

| seq-string | soluble on expression in E. coli |
| --- | --- |
| GEEGNSSELPLSAEDAKKLTELAENVLQGWDVQAEKIDVIQGNQMALVWKVHTDSGAVCLKRIHRPEKKALFSIFAQDYLAKKGMNVPGILPNKKGSLYSKHGSFLFVVYDWIEGRPFELTVKQDLEFIMKGLADFHTASVGYQPPNGVPIFTKLGRWPNHYTKRCKQMETWKLMAEAEKEDPFSQLYLQEIDGFIEDGLRIKDRLLQSTYVPWTEQLKKSPNLCHQDYGTGNTLLGENEQIWVIDLDTVSFDLPIRDLRKMIIPLLDTTGVWDDETFNVMLNAYESRAPLTEEQKQVMFIDMLFPYELYDVIREKYVRKSALPKEELESAFEYERIKANALRQLI | soluble |
| MHHHHHHSSGVDLGTENLYFQSMINSFYAFEVKDAKGRTVSLEKYKGKVSLVVNVASDCQLTDRNYLGLKELHKEFGPSHFSVLAFPCNQFGESEPRPSKEVESFARKNYGVTFPIFHKIKILGSEGEPAFRFLVDSSKKEPRWNFWKYLVNPEGQVVKFWRPEEPIEVIRPDIAALVRQVIIKKKEDL | soluble |

----------
# test-details: soluble on expression in E. coli; label from the status in PepcDB or PDB records
parameter: soluble on expression in E. coli

| seq-string | soluble on expression in E. coli |
| --- | --- |
| ITLKYNYTVTLKDDGLYDGVFYDHYNDQLVTKISYNHETRHGNVNFRADWFNISRSPHTPGNDYNFNFWYSLMKETLEEINKNDSTKTTSLSLITGCYETGLLFGSYGYVETANGPLARYHTGDKRFTKMTHKGFPKVGMLTVKNTLWKDVKAYLGGFEYMGCSLAILDYQKMAKGKIPKDTTPTVKVTGNELEDGNMTLECTVNSFYPPDVITKWIESEHFKGEYKYVNGRYYPEWGRKSNYEPGEPGFPWNIKKDKDANTYSLTDLVRTTSKMSSQPVCVVFHDTLEAQVYTCSEGCNGELYDHLYRKTEEGEGGSHHHHHH | soluble |
| RESLGRDVMVVVDLSGSMAEQDFVSKQSSDLGAVKKISRLEATKEVLADFVKTRKGDRLGLILFGDAAFVQTPFTADQSVWLELLNQTDVAMAGQSTHLGDAIGLAIKVFEQSSEDKASAEENAKPREKVAIVLTDGNDTGSYVEPIDAAKVAAAKDVRIHMIAMGDPRTVGEQALDMNIINRVAKESGGKAFQAINRDELEQAYDEIGELEPQLYE | not soluble |
| MNDIWWQTYGEGNCHLVLLHGWGLNAEVWHCIREELGSHFTLHLVDLPGYGRSSGFGAMTLEEMTAQVAKNAPDQAIWLGWSLGGLVASQMALTHPERVQALVTVASSPCFSAREGWPGIKPEILGGFQQQLSDDFQRTVERFLALQTLGTETARQDARTLKSVVLAQPMPDVEVLNGGLEILKTVDLREALKNVNMPFLRLYGYLDGLVPRKIVPLLDTLWPHSTSQIMAKAAHAPFISHPAAFCQALMTLKSSL | not soluble |
| MIKLIATIIVSTLILGSCSTMKDEIEKVPASQYKGQDFQPLAEKSAIAHAKKYREEYEKLGEQFFKDNFSLNVKATNVVGSGDGAEVYVHCDDHDIVFNASIPFDMESIHEEGSMRSNDNGDTMSMMVGTVLSGFEYRANKEKMDNLEKYLKDKEDKYHYTGFTDEAITKTQNIGYQNNYFYITTSSTKLRDYRKHFEPLIKESDDDFKKHMKQLKSKKDTYINTEITTTLFSTLDEYDEKIIRKNTLSMAKEMRKEPSIPHNFTFHLLFSNNKLKINDPNISNNQINEYRVFDHDGFKNLEHHHHHH | not soluble |
| MQINKDELIKMGNHLKEARLSKQLTQEELARLSNISQATIVKYENGLRSISKKNDRILSDVLGAESFIKDMIQRKQQVLIDLEKYQTKNIFSREDLSKKLGIEISLLNKFLNQSRPLSKNAIVKITQLLSNEGKEILMDIKQEDGSFKLPIIDKIAMGKRIQEIRKNRGETLEKFGKNFTRPAGKNVVNRWEKGTNIPDIERLMNVAYLGKVAVPYILYGETFSKMLKKGSRISKFEKLDSFRMGLRLRKIRRDYRLEREDFGKFFSPPITKWSMDKYENGKDIPNTDRIIQYAYIGKVSLNFLIYGVN | not soluble |

**Query** soluble on expression in E. coli for MSIHSASPIIRRKSRKIWVGNVPVGGDAPIAVQSMTNTETCDVAATVAQIRRLEDAGADIVRVSVPDMDAAEAFGKIKQQVNVPLVADIHFDYRIALRVAELGVDCLRINPGNIGREDRVKAVVDAARERNIPIRIGVNAGSLEKDLQKKYGEPTPEALLESAMRHVDHLDKLDFQNFKVSVKASDVFMAVAAYRLLARQIEQPLHLGITEAGGLRSGTVKSAVGLGMLLAEGIGDTIRISLAADPVEEIKVGFDILKSLHLRSRGINFIACPSCSRQNFDVVKTMNELEGRLEDLLVPMDVAVIGCVVNGPGEAKEAHVGLTGGTPNLVYIDGKPSQKLTNDNLVDELERLIRQKAAEKAEADASLIARG ?
**Result** not soluble

**Query** soluble on expression in E. coli for AIAASGKRKGLSFDDKKTRLLELFNETCDFYTLKELEKIAPKLKGIITQSVKDVLQSLVDDDLVNSDKCGVQTIYWCLPSEAVAKRQRRLDALQQQLAEKRQKLTALQRQLVQVQAGREDSVERTAVLERLAACEAAWRERQRTLESYLECDPDVLAQRETETKTLIEQANRWTDNLYVIRSYVQRNLGVDLDLFDQQFELKPALQYLE ?
**Result** soluble

**Query** soluble on expression in E. coli for MREGWRDEPAARGGCQCGRVRYSVPAGPKKSTVCHCRMCQRATGNAFAPLLEVPTADVVWEGTPAVWASSSVAERGFCATCGTPLFYRSDETTELMAGTLAGFDFRPIANHGIEGRVGWLGGLAALPDRATRPELLSRVVSHQAPDE ?
**Result** not soluble

**Query** soluble on expression in E. coli for GPGSMPWEVKADNAYGIDYNKLIDKFGCKLITKDMIERMERLTGQKAHHFFRRNIFLSHRDFEKILDVYEKGELFYLYTGRGPSSESLHVGHLVPFLFTKYLQDTFKVPLVIQLTDDEKFIFKSNLTLEETHNYAYENMKDIIACGFDPELTFIFTNLEYIAELYPDILRIEKKISCSQIKSIFGFKDSCNVGKFAFPAVQAAPAFSSSFPHIFGGRTDIHCLVPHAIDQDPYFRMVRDVAPRLGYLKPSSIHSIFLPSLQGSQTKMSASVQNSSIFVNDNEESIRNKIMKYAFSGGQATEEEQRRLGANLDVDVSWQYLRFLMEDDEKLEEIGKKYSSGEMLSGEIKSILVQELVKLTKNHQKNREAINDDVIAKFTNKSREQLLKLFINKK ?
**Result** soluble

**Query** soluble on expression in E. coli for FFSGLFQRKSDAPVTTPAELADAIGLSYDTYTGKQISSQRAMRLTAVFSCVRVLAESVGMLPCNLYHLNGSLKQRATGERLHKLISTHPNGYMTPQEFWELVVTCLCLRGNFYAYKVKAFGEVAELLPVDPGCVVYALGRCQRWPEGDRRECYSAR ?
**Result** soluble

**Query** soluble on expression in E. coli for MGSDKIHHHHHHMSNTDKYYRDRSHITGKLDLQKLPKAIREKQYGIDVREAMAQTAEAIAGVQSTAQKFNQDTKNQVNQLDEKYTREIRAIVLGDTTSVATPPIQEPNSEASNPLSNLYETARGQVLYDFVKQSSLTKVSKIGVIGDSVAATAGGFPDILAHQYNIYVENLSVGGAKMSDYNHDAIVNQASRLQQCDVVIIQGTDDDWVHDISLGYAGDTNIKTYLGGLRETIKRVKNNNPKAKLIVVNCTRQCVDVHGKYRTEQSKNTFGLTLIDYMEAQKKYLNQQDVPYVDLMKPTSIFEPDNPAFKKTMMHDGLHPTPEAHQYIVQEIAKDYSYYYDK ?
**Result** not soluble
